Molecular target: HERG potassium channel (Homo sapiens)
Sequence (Q12809 whole entry): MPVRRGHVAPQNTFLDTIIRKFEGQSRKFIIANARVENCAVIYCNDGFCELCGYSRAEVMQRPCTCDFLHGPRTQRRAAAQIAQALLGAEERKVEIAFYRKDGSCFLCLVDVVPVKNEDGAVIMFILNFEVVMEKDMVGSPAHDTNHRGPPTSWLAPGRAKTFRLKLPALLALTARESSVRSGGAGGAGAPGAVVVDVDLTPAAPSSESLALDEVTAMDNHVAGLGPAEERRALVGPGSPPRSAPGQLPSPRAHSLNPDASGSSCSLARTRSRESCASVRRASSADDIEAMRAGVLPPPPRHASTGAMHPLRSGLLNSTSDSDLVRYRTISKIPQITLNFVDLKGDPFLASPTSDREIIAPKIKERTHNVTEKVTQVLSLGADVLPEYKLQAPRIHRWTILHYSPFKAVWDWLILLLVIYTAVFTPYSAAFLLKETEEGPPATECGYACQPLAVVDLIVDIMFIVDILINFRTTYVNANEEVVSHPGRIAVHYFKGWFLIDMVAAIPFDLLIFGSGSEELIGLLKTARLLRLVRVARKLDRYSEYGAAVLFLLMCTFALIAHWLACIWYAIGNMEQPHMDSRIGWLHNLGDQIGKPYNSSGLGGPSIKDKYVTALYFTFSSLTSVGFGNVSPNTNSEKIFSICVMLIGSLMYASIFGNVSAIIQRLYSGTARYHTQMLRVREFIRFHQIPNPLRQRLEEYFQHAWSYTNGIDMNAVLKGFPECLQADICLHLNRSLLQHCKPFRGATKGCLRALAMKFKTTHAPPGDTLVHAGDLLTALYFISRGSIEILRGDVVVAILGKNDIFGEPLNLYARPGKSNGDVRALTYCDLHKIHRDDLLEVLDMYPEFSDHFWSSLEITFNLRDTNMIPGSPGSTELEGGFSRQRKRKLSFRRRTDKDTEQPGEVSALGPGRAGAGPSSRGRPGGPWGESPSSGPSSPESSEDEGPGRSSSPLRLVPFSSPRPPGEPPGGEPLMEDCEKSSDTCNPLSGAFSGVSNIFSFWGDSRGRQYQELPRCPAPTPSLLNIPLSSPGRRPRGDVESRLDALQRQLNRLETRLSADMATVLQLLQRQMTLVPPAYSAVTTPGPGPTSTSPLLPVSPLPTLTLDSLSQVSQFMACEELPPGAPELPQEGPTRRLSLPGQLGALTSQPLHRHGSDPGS
valueKind: Ki (µM)
// note: answer is a bare numeric in µM

## Input Entry `O=C1CCc2cc([C@@H](O)CN3CCC(O)(c4cccc(F)c4)CC3)ccc2N1` : reported Ki = ?
## Output 8.3

* * *

Target: NR2B (Homo sapiens, UniProt Q05586+Q13224)
Sequence (Q13224 27-1484, species assumed, other chains not shown): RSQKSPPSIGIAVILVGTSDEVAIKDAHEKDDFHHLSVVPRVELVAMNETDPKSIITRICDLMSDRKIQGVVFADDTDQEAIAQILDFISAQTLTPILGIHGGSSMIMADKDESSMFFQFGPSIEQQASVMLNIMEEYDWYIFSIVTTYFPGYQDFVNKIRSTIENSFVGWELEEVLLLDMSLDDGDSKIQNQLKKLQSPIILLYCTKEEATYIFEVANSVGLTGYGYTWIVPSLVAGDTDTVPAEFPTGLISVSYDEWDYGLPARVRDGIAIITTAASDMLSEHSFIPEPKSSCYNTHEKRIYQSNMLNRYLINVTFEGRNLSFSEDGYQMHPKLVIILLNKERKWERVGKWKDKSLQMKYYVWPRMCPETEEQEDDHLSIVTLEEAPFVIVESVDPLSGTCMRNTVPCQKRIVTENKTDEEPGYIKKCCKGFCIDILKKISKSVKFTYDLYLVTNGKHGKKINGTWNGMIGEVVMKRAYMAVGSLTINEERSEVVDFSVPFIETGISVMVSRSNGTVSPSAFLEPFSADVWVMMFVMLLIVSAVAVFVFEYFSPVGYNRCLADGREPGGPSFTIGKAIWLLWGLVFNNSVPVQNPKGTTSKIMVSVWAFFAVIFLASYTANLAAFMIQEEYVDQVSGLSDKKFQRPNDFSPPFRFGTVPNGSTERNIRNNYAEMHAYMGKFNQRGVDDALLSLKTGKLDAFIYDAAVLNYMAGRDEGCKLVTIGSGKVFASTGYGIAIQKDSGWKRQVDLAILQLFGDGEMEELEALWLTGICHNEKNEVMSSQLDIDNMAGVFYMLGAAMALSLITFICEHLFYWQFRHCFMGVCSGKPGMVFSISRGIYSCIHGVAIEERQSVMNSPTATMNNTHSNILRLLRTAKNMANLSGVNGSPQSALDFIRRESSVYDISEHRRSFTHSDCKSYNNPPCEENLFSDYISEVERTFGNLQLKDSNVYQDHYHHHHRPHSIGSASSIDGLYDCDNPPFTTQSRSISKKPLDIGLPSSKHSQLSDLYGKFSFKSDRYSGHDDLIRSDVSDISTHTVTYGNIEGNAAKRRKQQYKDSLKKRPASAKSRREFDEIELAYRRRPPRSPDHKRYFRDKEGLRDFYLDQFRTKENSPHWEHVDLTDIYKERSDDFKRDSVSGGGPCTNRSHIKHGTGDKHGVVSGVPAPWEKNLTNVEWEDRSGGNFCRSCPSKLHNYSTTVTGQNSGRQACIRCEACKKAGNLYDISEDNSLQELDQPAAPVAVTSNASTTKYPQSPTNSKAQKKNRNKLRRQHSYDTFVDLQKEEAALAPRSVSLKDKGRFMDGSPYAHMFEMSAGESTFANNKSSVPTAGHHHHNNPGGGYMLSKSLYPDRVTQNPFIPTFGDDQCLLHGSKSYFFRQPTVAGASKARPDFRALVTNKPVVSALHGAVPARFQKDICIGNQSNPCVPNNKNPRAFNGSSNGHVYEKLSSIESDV
Experiment: Functional activity (method not described)
Item-by-item account of IC50
// note: answer is a bare numeric in µM

1. O=C1CCc2cc([C@@H](O)CN3CCC(O)(c4cccc(F)c4)CC3)ccc2N1 = 0.0119

Next item in the queue.
## Input Entry `C[C@H]([C@H](O)c1ccc2c(c1)CCC(=O)N2)N1CCC(O)(c2ccccc2)CC1` : reported IC50 = ?
## Output 0.0224

Reference source: patent US6713490B2
